Origin of the recorded values: paper PMC5761851

Quick reference for remaining activity at 10 µM among some compounds
# assayed.target: JAK2 (Homo sapiens)
# Construct: purchased Eurofins Pharma Discovery Services (KinaseProfiler; Cerep BioPrint panel)
# Sequence (O60674 whole entry): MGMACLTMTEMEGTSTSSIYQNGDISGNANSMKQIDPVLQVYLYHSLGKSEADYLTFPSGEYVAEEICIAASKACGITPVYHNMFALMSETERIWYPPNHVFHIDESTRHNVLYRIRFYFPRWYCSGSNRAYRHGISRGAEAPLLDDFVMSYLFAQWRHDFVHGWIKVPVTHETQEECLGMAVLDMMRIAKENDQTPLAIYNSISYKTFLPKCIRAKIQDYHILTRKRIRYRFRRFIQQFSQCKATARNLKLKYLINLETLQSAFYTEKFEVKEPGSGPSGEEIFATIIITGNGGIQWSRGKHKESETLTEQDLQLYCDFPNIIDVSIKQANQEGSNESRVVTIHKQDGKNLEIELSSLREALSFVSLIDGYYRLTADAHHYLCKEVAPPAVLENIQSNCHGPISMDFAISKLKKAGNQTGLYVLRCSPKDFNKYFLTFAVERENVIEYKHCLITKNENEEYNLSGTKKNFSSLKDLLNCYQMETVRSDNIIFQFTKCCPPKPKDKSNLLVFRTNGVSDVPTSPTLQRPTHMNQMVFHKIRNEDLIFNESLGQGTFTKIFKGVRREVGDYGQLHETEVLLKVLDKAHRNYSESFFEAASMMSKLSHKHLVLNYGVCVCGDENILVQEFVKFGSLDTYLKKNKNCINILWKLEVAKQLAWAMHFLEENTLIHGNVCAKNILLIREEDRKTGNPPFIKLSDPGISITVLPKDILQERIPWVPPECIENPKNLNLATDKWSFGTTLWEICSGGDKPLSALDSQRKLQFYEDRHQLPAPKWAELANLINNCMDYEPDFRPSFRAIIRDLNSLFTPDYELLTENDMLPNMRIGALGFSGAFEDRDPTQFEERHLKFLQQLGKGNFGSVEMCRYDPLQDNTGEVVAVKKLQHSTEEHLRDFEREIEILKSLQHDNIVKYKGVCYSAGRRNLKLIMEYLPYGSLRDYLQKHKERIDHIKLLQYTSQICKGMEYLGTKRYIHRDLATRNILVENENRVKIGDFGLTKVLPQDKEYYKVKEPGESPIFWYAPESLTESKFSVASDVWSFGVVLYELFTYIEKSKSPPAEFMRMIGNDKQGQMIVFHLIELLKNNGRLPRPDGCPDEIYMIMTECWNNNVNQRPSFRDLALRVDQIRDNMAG
# test: kinase selectivity panel
# Assay type: biochemical
# setup.conditions: read-out: percentage of control activity (POC), JAK2
test.readout: remaining activity at 10 µM (%)

1) Cn1cc(-c2cccc(-c3nc(C(=O)NC4C5CC6CC4CC(O)(C6)C5)c(N)nc3N)c2)cn1 (centres unmarked) = 88
2) CS(=O)(=O)N1CCN(c2ccc(Nc3ncc(C(N)=O)c(NC4CC4)n3)cc2)CC1 = -3
3) Cc1ccc(C(=O)NCC2CC2)cc1-c1ccc2c(c1)NC(=O)C21CCCC1 = 108
4) COc1c(NC(=O)c2ccc(C)c(-c3nnc4c(NCC(C)(C)C)nccn34)c2)cc(C(C)(C)C)cc1NS(C)(=O)=O [compound 7, reference compound] = 104
5) CC(C)(C)N1CCC(c2cc(-c3ccc(F)cc3Cl)c3cc[n+]([O-])c(-c4c(Cl)cccc4Cl)c3n2)CC1 = 105
